Reference source: patent US20060166900A1

experiment: Stability indicating HPLC assay and related substances on storage (Example 3); type: physicochemical; conditions: 3 months, 25° C./60% RH
metric name: Total Related Substances (%)
Answers are plain numbers, in %.

// solved cases for Total Related Substances follow
Br.CN1CC[C@]23c4c5ccc(O)c4O[C@H]2[C@@H](O[C@@H]2O[C@H](C(=O)O)[C@@H](O)[C@H](O)[C@H]2O)C=C[C@H]3[C@H]1C5 [Morphine-6-glucuronide hydrobromide]: 0.93
CN1CCC23c4c5ccc(O)c4OC2C(OC2OC(C(=O)O)C(O)C(O)C2O)C=CC3C1C5.CN1CCC23c4c5ccc(O)c4OC2C(OC2OC(C(=O)O)C(O)C(O)C2O)C=CC3C1C5.O=C(O)C=CC(=O)O (stereo not shown) [Morphine-6-glucuronide maleate]: 3.55

Lab note: each molecule below needs its Total Related Substances filled in.
1. CN1CCC23c4c5ccc(O)c4OC2C(OC2OC(C(=O)O)C(O)C(O)C2O)C=CC3C1C5.CN1CCC23c4c5ccc(O)c4OC2C(OC2OC(C(=O)O)C(O)C(O)C2O)C=CC3C1C5.O=S(=O)(O)O (stereo not shown) [Morphine-6-glucuronide sulphate]
2. CN1CC[C@]23c4c5ccc(O)c4O[C@H]2[C@@H](O[C@@H]2O[C@H](C(=O)O)[C@@H](O)[C@H](O)[C@H]2O)C=C[C@H]3[C@H]1C5 [Morphine-6-glucuronide base, morphine-6-β-D-glucuronide]

stdout:
1. 9.16
2. 1.42
